# Test system: OVCAR-4 ovarian
# test details: NCI-60 one-dose screen, 48 h (100 = growth as untreated, 0 = no growth, -100 = all killed)
# experimental parameters: 10 µM unless noted
About 83,000 compounds went through this panel and 20% of them were active in at least one assay; those are over-represented in the sample as a whole.
Answer each item with its documented growth.
One number for each entry, in %.

Below, each entry is followed by its recorded growth result.
1. CN(C)CCNC(=O)c1ccc(-c2nc3ccc4[nH]ncc4c3c3c2CCC3)cc1 : 10.2
2. N#Cc1cccc(CN2CCC3=C(C2)C(=O)N(Cc2ccc(Cl)cc2)C2=NCCCN23)c1 : 20.8
3. O=C(CCn1c[n+](CC(=O)c2ccc(-c3ccccc3)cc2)c2ccccc21)Nc1cccc2cccnc12 : 24.8

Input: Which growth value is on record for "Cc1cc(-c2ccc(Cl)cc2)n(Cc2nnc(SCC(=O)Nc3ccc(S(N)(=O)=O)cc3)n2-c2ccc([N+](=O)[O-])cc2)n1" ?
Output: 86.5
